Reported pIC50 values are given for each entry in this list.
molecular target: Tyrosine-protein phosphatase non-receptor type 1 (Homo sapiens, UniProt P18031); experiment: Inhibition of recombinant PTP1B catalytic domain (unknown origin) assessed as reduction in pNP formation using pNPP as substrate by absorbance based analysis
Sequence (P18031 whole entry, the tested form may be a part): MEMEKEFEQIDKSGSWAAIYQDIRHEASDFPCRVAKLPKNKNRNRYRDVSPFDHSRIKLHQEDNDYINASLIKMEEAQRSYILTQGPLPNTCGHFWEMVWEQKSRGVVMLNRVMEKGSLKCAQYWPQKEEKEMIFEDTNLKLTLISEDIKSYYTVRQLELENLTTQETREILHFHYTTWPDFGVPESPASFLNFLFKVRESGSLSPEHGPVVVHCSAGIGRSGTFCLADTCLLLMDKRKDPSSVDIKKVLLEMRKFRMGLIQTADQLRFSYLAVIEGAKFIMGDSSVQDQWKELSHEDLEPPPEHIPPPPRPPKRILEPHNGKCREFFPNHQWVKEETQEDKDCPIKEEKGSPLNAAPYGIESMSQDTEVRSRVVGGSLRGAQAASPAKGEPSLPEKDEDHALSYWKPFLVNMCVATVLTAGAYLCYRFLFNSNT
// pIC50: -log10(molar conc.)

Look over these answered cases.
GET /values?item= "CC(C)=CCC/C(C)=C/Cc1c(O)cc(O)c2c(=O)c(CC=C(C)C)c(-c3ccc(O)cc3O)oc12" &system= Tyrosine-protein phosphatase non-receptor type 1 (Homo sapiens, UniProt P18031) returns pIC50: 5.28

GET /values?item= "CC(C)=CCc1c(O)ccc(C(=O)Oc2cc(-c3cc4ccc(O)cc4o3)cc(O)c2-c2cc(C)cc(-c3ccc(O)cc3O)c2)c1O" &system= Tyrosine-protein phosphatase non-receptor type 1 (Homo sapiens, UniProt P18031) returns pIC50: 5.89

GET /values?item= "CC(C)=CCc1cc(-c2oc3cc(O)cc(O)c3c(=O)c2CC=C(C)C)c(O)cc1O" &system= Tyrosine-protein phosphatase non-receptor type 1 (Homo sapiens, UniProt P18031) returns pIC50: 4.90

GET /values?item= CC(C)=CCc1c(-c2ccc(O)cc2O)oc2c3c(cc(O)c2c1=O)OC(C)(C)C=C3 [MORUSIN] &system= Tyrosine-protein phosphatase non-receptor type 1 (Homo sapiens, UniProt P18031) returns pIC50: 4.66

GET /values?item= "CC(C)=CCc1cc(-c2oc3c(CC=C(C)C)c(O)cc(O)c3c(=O)c2CC=C(C)C)c(O)cc1O" &system= Tyrosine-protein phosphatase non-receptor type 1 (Homo sapiens, UniProt P18031) returns pIC50: 5.11

GET /values?item= CC(C)=CCc1c(-c2ccc(O)cc2O)oc2cc3c(c(O)c2c1=O)C=CC(C)(C)O3 [CUDRAFLAVONE B] &system= Tyrosine-protein phosphatase non-receptor type 1 (Homo sapiens, UniProt P18031) returns pIC50: 4.70

GET /values?item= CC(C)=CCc1c(O)cc(-c2cc3ccc(O)cc3o2)cc1O [MORACIN C] &system= Tyrosine-protein phosphatase non-receptor type 1 (Homo sapiens, UniProt P18031) returns pIC50: 4.99

Please find the next compound below.
GET /values?item= "CC(C)=CCc1c(O)ccc(C(=O)Oc2cc(/C=C/c3ccc(O)cc3O)cc(O)c2-c2cc(C)cc(-c3ccc(O)cc3O)c2)c1O" &system= Tyrosine-protein phosphatase non-receptor type 1 (Homo sapiens, UniProt P18031) returns pIC50: 5.74
